Target: T1, GFP-9S library array, motif 4 ND N98R;D124A (synthetic construct, N98R;D124A)
T1 chain: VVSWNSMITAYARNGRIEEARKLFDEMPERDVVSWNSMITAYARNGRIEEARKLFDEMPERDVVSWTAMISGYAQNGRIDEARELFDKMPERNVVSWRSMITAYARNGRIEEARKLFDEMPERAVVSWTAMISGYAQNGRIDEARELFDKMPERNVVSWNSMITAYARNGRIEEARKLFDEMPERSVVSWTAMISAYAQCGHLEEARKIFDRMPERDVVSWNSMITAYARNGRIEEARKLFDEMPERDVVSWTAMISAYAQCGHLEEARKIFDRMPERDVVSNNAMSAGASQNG
Experiment: high-throughput RNA pulldown from lysate on Ni-NTA beads; HRP: 50 mM Tris pH 8, 150 mM NaCl, 1 mM beta-mercaptoethanol, 50 ug/ml BSA, 3 ug/ml yeast RNA, 0.5% heparin; ITC and FP: Tris pH 8, 200 mM KCl, 5% glycerol; MST: 50 mM Tris pH 8, 200 mM NaCl, 1 mM DTT, BSA, heparin, 0.05% Tween 20
Settings: tags: N-terminal His-eGFP; label: 5' Cy5
Reported pKd values for the following binders.
Notebook: values listed as pKd are -log10 of the concentration (mol/L).

{"binder": "AUUAGACGUGA (ssRNA) [Cy5-rpoA-G]", "measured property": "pKd", "quantitative result": 7.05}

Continue with the binder presented below.
Looking for the measured pKd of AUUACACGUGA (ssRNA) [Cy5-rpoA] , can you help?
7.12
